Test: Tanguay_ZF_120hpf_YSE_legacy: (Legacy) Oregon State University Tanguay Lab 120 Hour Post-fertilization zebrafish Assay for Yolk Sac Edema (AID 2283634)
Records with an inconclusive call do not appear. Calls of active or inactive are those of the source. How the source made its calls: active means hit-call score of the fitted dose curve at least 0.9, where 1 is the maximum; inconclusive means response in the unintended direction; inactive means score below 0.9.
Just give me one of these, please: Yes = active, No = inactive

Reference set (3 entries):
- O=C(O)CCCCC(=O)O: No
- Cc1nc(C)nc(N2C[C@@H](C)N(c3ccnc([C@@H](C)O)n3)[C@@H](C)C2)n1: No
- CCCCCC(=O)O: No

Dear all, I need the recorded test outcome for Nc1ccc2c(c1)C(=O)c1ccccc1C2=O , thank you.
No

Dear all, I need the recorded test outcome for COc1cc(S(=O)(=O)O)c(C)cc1N=Nc1c(O)ccc2cc(S(=O)(=O)O)ccc12 , thank you.
No

Dear all, I need the recorded test outcome for CCOC(=O)CCC(=O)OCC , thank you.
No

Dear all, I need the recorded test outcome for COc1cc(C=O)ccc1O , thank you.
Yes

Dear all, I need the recorded test outcome for C=CCOC(=O)c1ccccc1C(=O)OCC=C , thank you.
Yes
